Target: human β3-AR (Homo sapiens)
Construct: Full-length β3-AR clones (402 amino acids) containing the last 6 amino acids of hβ3-AR; expressed in transfected cells; host or cells: CHO cells
Sequence (P13945 whole entry): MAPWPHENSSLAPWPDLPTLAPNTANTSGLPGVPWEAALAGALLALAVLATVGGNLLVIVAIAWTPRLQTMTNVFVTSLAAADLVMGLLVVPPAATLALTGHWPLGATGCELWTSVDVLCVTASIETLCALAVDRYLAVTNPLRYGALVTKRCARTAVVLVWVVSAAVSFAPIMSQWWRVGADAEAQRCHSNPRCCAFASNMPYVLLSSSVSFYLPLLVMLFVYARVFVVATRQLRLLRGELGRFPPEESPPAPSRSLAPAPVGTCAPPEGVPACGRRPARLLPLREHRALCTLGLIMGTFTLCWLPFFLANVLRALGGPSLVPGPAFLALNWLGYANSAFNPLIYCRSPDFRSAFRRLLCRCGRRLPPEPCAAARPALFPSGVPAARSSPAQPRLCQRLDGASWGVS
Test: cAMP accumulation (SPA) in CHO cells transfected with human β3-AR
Format: cell-based
Conditions: maximal response of compound relative to maximal response of isoproterenol at 10^-5 M
Exercise: state measured IA(β3) for each of the compounds provided.
Numbers only.

COC(=O)C(Cc1ccccc1)NC1=NS(=O)(=O)N=C1Nc1ccc(N2CCC(NCC(O)c3ccc(O)c(NS(C)(=O)=O)c3)CC2)cc1 (stereo not drawn) [Example 6]; 0.9
COc1ccc(CCNC2=NS(=O)(=O)N=C2Nc2ccc(N3CCC(NC[C@H](O)COc4ccc(O)cc4)CC3)cc2)cc1 [Example 1]; 0.69
COC(=O)CNC1=NS(=O)(=O)N=C1Nc1ccc(N2CCC(NC[C@H](O)c3ccc(O)c(NS(C)(=O)=O)c3)CC2)cc1 [Example 3]; 0.40
COC(=O)[C@@H](Cc1ccccc1)Nc1c(Nc2ccc(N3CCC(NC[C@H](O)c4ccc(O)c(NS(C)(=O)=O)c4)CC3)cc2)c(=O)c1=O [Example 2]; 0.80
O=S1(=O)N=C(NCCc2ccc(F)cc2)C(Nc2ccc(N3CCC(NC[C@H](O)COc4ccc(O)cc4)CC3)cc2)=N1 [Example 5]; 1.0

We now examine a further compound.
Reported IA(β3), compound CCCCCCCCNC1=NS(=O)(=O)N=C1Nc1ccc(N2CCC(NC[C@H](O)COc3ccc(O)cc3)CC2)cc1 [Example 4] : ____ 0.96
